Assay: Metabolic stability in liver microsomes
Type: in vitro ADME
Settings: Cynomolgus monkey liver microsomes, compound 1 μM
endpoint: metabolic stability (halftime in minutes), Monkey (min)

> print(dat)
                           smiles.structure  readout.number
1  CCn1nc2ncc(N3CC4(CN(C(=O)C5CCOCC5)C4)C3)cc2c1N(C)c1nc(-c2ccc(F)cc2)c(C#N)s1            21.3
2  CCc1nc2c(C)cc(N3CCN(CC(=O)N4CC(O)C4)CC3)cn2c1N(C)c1nc(-c2ccc(F)cc2)c(C#N)s1             4.8
3  CCc1nn2cc(F)c(N3CC4(CN(C(=O)[C@H]5CCOC5)C4)C3)cc2c1N(C)c1nc(-c2ccc(F)cc2)c(C#N)s1             6.4
4  CCc1nn2cc(F)c(N3CCN(CC(=O)N4CC(O)C4)CC3)cc2c1N(C)c1nc(-c2ccc(F)cc2)c(C#N)s1             9.8

###

Target: Autotaxin (Homo sapiens, UniProt Q13822)
Construct: from tissue; host or cells: pooled human plasma
Test: LPA formation in pooled human plasma (ex vivo autotaxin inhibition)
Assay type: biochemical
Settings: 2 hours incubation, LPA 20:4 by LC/MS/MS, read-out: LPA formation (20:4) (IC50)
endpoint: IC50

> print(dat)
                                    compound                               measured.on         result
 1  CCc1nn2c(C)cc(N3CC4(CCN(C(=O)[C@H]5CCCO5)C4)C3)cc2c1N(C)c1nc(-c2ccc(F)cc2)c(C#N)s1  Autotaxin (Homo sapiens, UniProt Q13822)  0.1 to 0.5 µM
 2  CN(c1nc(-c2ccc(F)cc2)c(C#N)s1)c1c(C2CC2)nn2cc(F)c(N3CC4(CN(C(=O)[C@H]5CCOC5)C4)C3)cc12  Autotaxin (Homo sapiens, UniProt Q13822)       ≤ 0.1 µM
 3  CCc1nn2c(C)cc(N3CC4(CCN(C(=O)C5CCOCC5)C4)C3)cc2c1N(C)c1nc(-c2ccc(F)cc2)c(C#N)s1  Autotaxin (Homo sapiens, UniProt Q13822)       ≤ 0.1 µM
 4  Cc1cc(N2CCN(CC(=O)O)CC2)cc2c(N(C)c3nc(-c4ccc(F)cc4)c(C#N)s3)c(C3CC3)nn12  Autotaxin (Homo sapiens, UniProt Q13822)         > 1 µM
 5  CN(c1nc(-c2ccc(F)cc2)c(C#N)s1)c1c(C2CC2)nn2ccc(N3CC4(CN(C(=O)[C@H]5CCOC5)C4)C3)cc12  Autotaxin (Homo sapiens, UniProt Q13822)       ≤ 0.1 µM
 6  CCc1nn2cc(F)c(N3CCN(CC(=O)N4CC[C@@H](O)C4)CC3)cc2c1N(C)c1nc(-c2ccc(F)cc2)c(C#N)s1  Autotaxin (Homo sapiens, UniProt Q13822)       ≤ 0.1 µM
 7  CCc1nn2c(C)cc(N3CCN(CC(=O)N(C)C)CC3)cc2c1N(C)c1nc(-c2ccc(F)cc2)c(C#N)s1  Autotaxin (Homo sapiens, UniProt Q13822)       ≤ 0.1 µM
 8  CCc1nn2c(C)cc(N3CC4(CN(C(=O)C5CCCO5)C4)C3)cc2c1N(C)c1nc(-c2ccc(F)cc2)c(C#N)s1 (stereo not shown)  Autotaxin (Homo sapiens, UniProt Q13822)       ≤ 0.1 µM
 9  CCc1nn2c(C)cc(N3CCC4(CN(C(=O)CO)C4)C3)cc2c1N(C)c1nc(-c2ccc(F)cc2)c(C#N)s1  Autotaxin (Homo sapiens, UniProt Q13822)  0.1 to 0.5 µM
10  CCc1nn2ccc(N3CCN(CC(=O)N4CC(CO)C4)CC3)cc2c1N(C)c1nc(-c2ccc(F)cc2)c(C#N)s1  Autotaxin (Homo sapiens, UniProt Q13822)       ≤ 0.1 µM
11  CCc1nn2ccc(N3CCC4(CC3)CC(C(=O)N3CC(O)C3)C4)cc2c1N(C)c1nc(-c2ccc(F)cc2)c(C#N)s1  Autotaxin (Homo sapiens, UniProt Q13822)       ≤ 0.1 µM
12  CCc1nn2c(C)cc(N3CC4(CN(C(=O)N5CC(O)C5)C4)C3)cc2c1N(C)c1nc(-c2ccc(F)cc2)c(C#N)s1  Autotaxin (Homo sapiens, UniProt Q13822)       ≤ 0.1 µM
13  CCc1nn2cc(F)c(N3CC4(CN(C(=O)N5CCOCC5)C4)C3)cc2c1N(C)c1nc(-c2ccc(F)cc2)c(C#N)s1  Autotaxin (Homo sapiens, UniProt Q13822)       ≤ 0.1 µM

###

Assay: Pharmacokinetics after a single oral dose in SD rats
Type: in vivo
Conditions: Sprague-Dawley, rat, plasma, single oral dose in 0.5% methylcellulose, read-out: T½ (converted)
endpoint: half-life

> print(dat)
                                   compound   endpoint    result
1  CCc1nn2cc(F)c(N3CCN(CC(=O)N4CC(O)C4)CC3)cc2c1N(C)c1nc(-c2ccc(F)cc2)c(C#N)s1 [Example 101]  half-life   197 min
2  CCc1nn2cc(F)c(N3CCN(CC(=O)N4CC[C@@H](O)C4)CC3)cc2c1N(C)c1nc(-c2ccc(F)cc2)c(C#N)s1 [Example 109]  half-life   208 min
3  CCn1nc2nc(C)c(N3CCN(CC(=O)N4CC(O)C4)CC3)cc2c1N(C)c1nc(-c2ccc(F)cc2)c(C#N)s1 [Compound 119]  half-life  98.4 min
4  [2H]c1c(F)c(N2CCN(CC(=O)N3CC(O)C3)CC2)cc2c(N(C)c3nc(-c4ccc(F)cc4)c(C#N)s3)c(CC)nn12 [Example 103]  half-life   259 min
5  CCc1nn2cc(F)c(N3CC4(CN(C(=O)C5CCN(C)CC5)C4)C3)cc2c1N(C)c1nc(-c2ccc(F)cc2)c(C#N)s1 [Example 106]  half-life   433 min
6  CCc1nn2cc(C)c(N3CC4(CN(C(=O)[C@H]5CCOC5)C4)C3)cc2c1N(C)c1nc(-c2ccc(F)cc2)c(C#N)s1 [Example 97]  half-life   325 min

###

Measured pIC50 by item
Biological target: Autotaxin (Homo sapiens)
Construct: from tissue; host or cells: pooled human plasma
Experiment: LPA formation in pooled human plasma (ex vivo autotaxin inhibition)
Type: biochemical
Conditions: 2 hours incubation, LPA 18:2 by LC/MS/MS, read-out: LPA formation (18:2) (IC50)
pIC50: −log10 of the molar value.
endpoint: pIC50

> print(dat)
                                    compound               measured.on        result
 1  CCc1nn2c(C)cc(N3CC4(CN(C(=O)[C@H]5CCOC5)C4)C3)cc2c1N(C)c1nc(-c2ccc(F)cc2)c(C#N)s1  Autotaxin (Homo sapiens)        ≥ 7.00
 2  CCn1nc2nc(C)c(N3CCN(CC(=O)N4CC(O)C4)CC3)cc2c1N(C)c1nc(-c2ccc(F)cc2)c(C#N)s1  Autotaxin (Homo sapiens)        ≥ 7.00
 3  CCn1nc2ncc(N3CC4(CN(C(=O)C5CCOCC5)C4)C3)cc2c1N(C)c1nc(-c2ccc(F)cc2)c(C#N)s1  Autotaxin (Homo sapiens)        ≥ 7.00
 4  CN(c1nc(-c2ccc(F)cc2)c(C#N)s1)c1c(C2CC2)nn2cc(F)c(N3CCN(CC(=O)N4CC(O)C4)CC3)cc12  Autotaxin (Homo sapiens)        ≥ 7.00
 5  Cc1cc(N2CC(C#N)C2)cc2c(N(C)c3nc(-c4ccc(F)cc4)c(C#N)s3)c(C3CC3)nn12  Autotaxin (Homo sapiens)        < 6.00
 6  CCc1nn2ccc(N3CC4(CN(C(=O)N5CC(O)C5)C4)C3)cc2c1N(C)c1nc(-c2ccc(F)cc2)c(C#N)s1  Autotaxin (Homo sapiens)        ≥ 7.00
 7  Cc1cc(N2CCN(CC(N)=O)CC2)cc2c(N(C)c3nc(-c4ccc(F)cc4)c(C#N)s3)c(C3CC3)nn12  Autotaxin (Homo sapiens)  6.00 to 6.30
 8  CCc1nn2c(C)cc(N3CCN(CC(=O)N4CC(O)C4)CC3)cc2c1N(C)c1nc(-c2ccc(F)cc2)c(C#N)s1  Autotaxin (Homo sapiens)  6.30 to 7.00
 9  [2H]c1cc(N2CCN(CC(=O)N3CC(O)C3)CC2)cc2c(N(C)c3nc(-c4ccc(F)cc4)c(C#N)s3)c(CC)nn12  Autotaxin (Homo sapiens)        ≥ 7.00
10  CCc1nn2c(C)cc(N3CCC4(CN(C[C@@H](O)CO)C4)C3)cc2c1N(C)c1nc(-c2ccc(F)cc2)c(C#N)s1  Autotaxin (Homo sapiens)  6.30 to 7.00
11  CCc1nn2ccc(N3CCC4(CCN(C(=O)N5CC(O)C5)CC4)C3)cc2c1N(C)c1nc(-c2ccc(F)cc2)c(C#N)s1  Autotaxin (Homo sapiens)        ≥ 7.00
12  CCc1nn2c(C)cc(N3CCC4(CN(C(=O)[C@H]5CCCO5)C4)C3)cc2c1N(C)c1nc(-c2ccc(F)cc2)c(C#N)s1  Autotaxin (Homo sapiens)        ≥ 7.00
13  CCc1nn2c(C)cc(N3CC4(CN(C(=O)C5COC5)C4)C3)cc2c1N(C)c1nc(-c2ccc(F)cc2)c(C#N)s1  Autotaxin (Homo sapiens)  6.30 to 7.00
14  CCc1nn2c(C)cc(N3CC4(CN(C(=O)c5ccon5)C4)C3)cc2c1N(C)c1nc(-c2ccc(F)cc2)c(C#N)s1  Autotaxin (Homo sapiens)  6.30 to 7.00
15  CCc1nn2c(C)cc(N3CCC4(CN(C(=O)CO)C4)C3)cc2c1N(C)c1nc(-c2ccc(F)cc2)c(C#N)s1  Autotaxin (Homo sapiens)  6.30 to 7.00
16  CCc1nn2c(C)cc(N3CC4(CN(C(=O)N5CC(O)C5)C4)C3)cc2c1N(C)c1nc(-c2ccc(F)cc2)c(C#N)s1  Autotaxin (Homo sapiens)        ≥ 7.00
17  CCc1nn2c(C)cc(N3CC4(CN(C(=O)C5CCN(C)CC5)C4)C3)cc2c1N(C)c1nc(-c2ccc(F)cc2)c(C#N)s1  Autotaxin (Homo sapiens)        ≥ 7.00
18  CCc1nn2c(C)cc(N3CC4(CN(C(=O)C5(O)CCOCC5)C4)C3)cc2c1N(C)c1nc(-c2ccc(F)cc2)c(C#N)s1  Autotaxin (Homo sapiens)        ≥ 7.00
19  Cc1cc(N2CC3(CN(C(=O)C4CCN(C)C4)C3)C2)cc2c(N(C)c3nc(-c4ccc(F)cc4)c(C#N)s3)c(C3CC3)nn12 (stereo not drawn)  Autotaxin (Homo sapiens)  6.30 to 7.00
20  CCn1nc2ncc(N3CC4(CN(C(=O)C5(O)CCOCC5)C4)C3)cc2c1N(C)c1nc(-c2ccc(F)cc2)c(C#N)s1  Autotaxin (Homo sapiens)        ≥ 7.00
21  CCc1nn2ccc(N3CCC4(CC3)CC(C(=O)N3CC(O)C3)C4)cc2c1N(C)c1nc(-c2ccc(F)cc2)c(C#N)s1  Autotaxin (Homo sapiens)        ≥ 7.00
22  Cc1cc(N2CC3(CN(C(=O)C(C)(C)O)C3)C2)cc2c(N(C)c3nc(-c4ccc(F)cc4)c(C#N)s3)c(C3CC3)nn12  Autotaxin (Homo sapiens)        ≥ 7.00
23  CCc1nn2ccc(N3CCN(CC(=O)N4CC(CO)C4)CC3)cc2c1N(C)c1nc(-c2ccc(F)cc2)c(C#N)s1  Autotaxin (Homo sapiens)        ≥ 7.00
24  CCc1nn2c(C)cc(N3CC4(CN(C(=O)C5CCCO5)C4)C3)cc2c1N(C)c1nc(-c2ccc(F)cc2)c(C#N)s1 (stereo not drawn)  Autotaxin (Homo sapiens)        ≥ 7.00
25  CCc1nn2c(C)cc(N3CCN(CC(=O)N(C)C)CC3)cc2c1N(C)c1nc(-c2ccc(F)cc2)c(C#N)s1  Autotaxin (Homo sapiens)  6.30 to 7.00
26  CCc1nn2c(C)cc(N3CCC4(CN(C(=O)C5(O)CC5)C4)C3)cc2c1N(C)c1nc(-c2ccc(F)cc2)c(C#N)s1  Autotaxin (Homo sapiens)  6.00 to 6.30
27  CCc1nn2ccc(N3CC4(CCN(C(=O)N5CC(O)C5)C4)C3)cc2c1N(C)c1nc(-c2ccc(F)cc2)c(C#N)s1  Autotaxin (Homo sapiens)        ≥ 7.00
